Target: yeast α-glucosidase (Saccharomyces cerevisiae)
Construct: purchased Sigma Aldrich G5003-100UN
Sequence (P53341 whole entry): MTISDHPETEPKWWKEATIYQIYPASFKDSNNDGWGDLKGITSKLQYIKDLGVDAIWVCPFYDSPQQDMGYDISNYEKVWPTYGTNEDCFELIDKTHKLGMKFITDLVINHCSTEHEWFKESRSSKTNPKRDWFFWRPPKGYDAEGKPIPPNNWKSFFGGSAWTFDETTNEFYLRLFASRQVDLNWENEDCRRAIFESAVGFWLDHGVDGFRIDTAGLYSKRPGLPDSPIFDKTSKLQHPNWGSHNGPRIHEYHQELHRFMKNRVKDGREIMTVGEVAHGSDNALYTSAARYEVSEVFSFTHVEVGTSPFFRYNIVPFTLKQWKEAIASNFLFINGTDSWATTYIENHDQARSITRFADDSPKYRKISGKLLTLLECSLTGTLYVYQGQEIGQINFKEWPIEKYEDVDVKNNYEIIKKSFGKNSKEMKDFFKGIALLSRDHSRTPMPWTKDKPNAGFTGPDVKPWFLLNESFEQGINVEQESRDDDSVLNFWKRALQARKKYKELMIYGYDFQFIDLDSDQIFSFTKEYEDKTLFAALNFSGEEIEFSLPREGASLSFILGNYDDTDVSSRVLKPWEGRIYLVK
Experiment: Inhibition of yeast α-glucosidase (p-nitrophenyl-α-D-glucopyranoside substrate, OD 405 nm)
Assay type: biochemical
Conditions: 10 µM; mean ± SEM
Protocol: The inhibition of α-glucosidase was evaluated using a previously adapted method. […] The percentage of inhibition was calculated according to the following equation:Inhibition (%) = [(Acontrol − Asample)/Acontrol] × 100 where A is the absorbance at 405 nm of the sample and the control. […]
I'd be grateful if you could share measured D.O. 405 nm for these entries.

Return D.O. 405 nm measured with yeast α-glucosidase (Saccharomyces cerevisiae) given this compound: "O=C(/C=C(O)/C=C/C=C/c1ccccc1)/C=C/C=C/c1ccccc1"
1.205±0.051

Return D.O. 405 nm measured with yeast α-glucosidase (Saccharomyces cerevisiae) given this compound: "OC[C@H]1O[C@@H]2O[C@H]3[C@H](O)[C@@H](O)[C@@H](O[C@H]4[C@H](O)[C@@H](O)[C@@H](O[C@H]5[C@H](O)[C@@H](O)[C@@H](O[C@H]6[C@H](O)[C@@H](O)[C@@H](O[C@H]7[C@H](O)[C@@H](O)[C@@H](O[C@H]8[C@H](O)[C@@H](O)[C@@H](O[C@H]1[C@H](O)[C@H]2O)O[C@@H]8CO)O[C@@H]7CO)O[C@@H]6CO)O[C@@H]5CO)O[C@@H]4CO)O[C@@H]3CO"
1.261±0.022

Return D.O. 405 nm measured with yeast α-glucosidase (Saccharomyces cerevisiae) given this compound: "O=C(C=CC=Cc1ccccc1)C=C([O-])C=CC=Cc1ccccc1.O=C(C=CC=Cc1ccccc1)C=C([O-])C=CC=Cc1ccccc1.[Cu+2]"
1.226±0.025

Return D.O. 405 nm measured with yeast α-glucosidase (Saccharomyces cerevisiae) given this compound: O=c1c(O)c(-c2ccc(O)c(O)c2)oc2cc(O)cc(O)c12 [Quercetin, quercetin, reference compound]
1.142±0.064
